# Test system: FXR:RXRa (NR concentration 270 nM, RXRa partner concentration 90 nM)
# assay protocol: PBM binding z-score (relative to random genomic background probes); higher = stronger binding; sequences stand for … in GC…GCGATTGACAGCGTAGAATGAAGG
# binning rule on PBM binding z-score: group A = under 0.8, group B = from 0.8 up to 3, group C = 3 and over

Ask: # bin lookup: classify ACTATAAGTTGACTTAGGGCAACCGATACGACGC by its PBM binding z-score
Result: group A

Ask: Which PBM binding z-score band matches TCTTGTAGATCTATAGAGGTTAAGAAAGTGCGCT ?
Result: group A

Ask: Band for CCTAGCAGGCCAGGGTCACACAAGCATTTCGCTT ?
Result: group B

Ask: Bin? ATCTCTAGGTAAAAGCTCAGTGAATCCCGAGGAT
Result: group A

Ask: Class for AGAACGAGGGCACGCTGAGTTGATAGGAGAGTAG ?
Result: group B

Ask: Kindly state the category for this sequence: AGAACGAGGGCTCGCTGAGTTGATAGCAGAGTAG
Result: group A

Ask: Class (by measured PBM binding z-score) for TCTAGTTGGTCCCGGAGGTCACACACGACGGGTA
Result: group B

Ask: Class? Entry: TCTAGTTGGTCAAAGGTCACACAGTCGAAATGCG
Result: group C

Ask: Sort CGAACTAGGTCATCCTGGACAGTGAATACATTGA into one of the categories.
Result: group C

Ask: Kindly identify the class of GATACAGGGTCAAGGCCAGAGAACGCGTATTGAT .
Result: group C

Ask: Classify this sequence: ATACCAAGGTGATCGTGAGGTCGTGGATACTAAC
Result: group B

Ask: # bin label for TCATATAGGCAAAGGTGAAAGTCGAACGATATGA
Result: group A

Ask: Just checking, what class would you give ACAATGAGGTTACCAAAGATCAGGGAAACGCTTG here?
Result: group B

Ask: State the class of the sequence shown: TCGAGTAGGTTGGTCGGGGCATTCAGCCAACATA
Result: group A

Ask: Bin this entry: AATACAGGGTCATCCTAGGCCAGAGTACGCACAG
Result: group C

Ask: Pick a category. Item: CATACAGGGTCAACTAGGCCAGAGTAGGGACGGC
Result: group C

Ask: Category lookup for the sequence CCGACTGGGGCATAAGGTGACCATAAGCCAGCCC
Result: group A

Ask: For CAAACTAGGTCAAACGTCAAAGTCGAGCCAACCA , which PBM binding z-score bin applies?
Result: group C

Ask: Class for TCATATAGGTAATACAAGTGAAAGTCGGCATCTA ?
Result: group B

Ask: Tag the class for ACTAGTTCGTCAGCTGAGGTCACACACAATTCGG
Result: group C

Ask: Dear colleague, I would appreciate it if you could identify the bin for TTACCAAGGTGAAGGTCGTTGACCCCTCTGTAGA and reply at your convenience.
Result: group C

Ask: Which of the defined bands does the recorded PBM binding z-score of TTACCAAGGTGAAGGTCGATGATCCCTCTGTAGA sit within?
Result: group B

Ask: Would you mind sorting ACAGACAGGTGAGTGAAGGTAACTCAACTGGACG into the appropriate category?
Result: group A

Ask: Which of the defined bands does the recorded PBM binding z-score of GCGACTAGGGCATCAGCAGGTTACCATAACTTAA sit within?
Result: group A
